The entries below come with measured self-cleavage values attached.
B1: CPEB3 Ribozyme (parent)
chain: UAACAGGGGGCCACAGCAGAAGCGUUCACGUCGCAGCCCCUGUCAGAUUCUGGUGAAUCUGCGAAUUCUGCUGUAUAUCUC

# Variants of: B1
# Assay protocol: self-cleavage, relative activity (ratio to wild type); higher = more cleavage; in vitro, sequencing
Property: self-cleavage

    sequence_change  endpoint_value
 0         G8U G33A            0.08
 1         A5G G53C             0.8
 2        U25C A47G            0.27
 3        G30U U72A            0.22
 4             C11U            0.44
 5          C4U G7C            0.13
 6         A5U A28G            0.83
 7        G33C U76C            0.12
 8        A35U A64U            0.48
 9         A2G U26G            0.18
10         A5G G36U            0.72
11        A13C U60G            0.57
12        C32U U78C            0.25
13        A15G G73C            1.16
14         G8C A56G            0.17
15        U58C U60C             0.3
16         G8U A64U            0.08
17        C29U U49A            0.16
18         A5U A35C             1.2
19        A21C A45U            0.13
20         C4U A45G            1.25
21        A15C U41G            0.15
22        G33A U54C            0.15
23        U58C A65C            0.14
24        U43C U66A            0.24
25        U48G A64U            0.17
26        A28C U80A            0.53
27        G10A G42C            0.16
28        U54C U67C            0.26
29         G6A A64U             0.2
30        G24A C71G            0.09
31        A21C U76A             0.1
32        A35U U54A            0.55
33        G10C U49G            0.17
34        G30A U69C            0.33
35         A2G U60A            0.22
36        U49C A56U            0.48
37        A56U U76A            0.84
38        U67C U78C            0.35
39        A13U G53A            1.27
40        U76C A77U            1.07
41        A20G G24A            0.29
42         A2U U78C            0.87
43        C37A A65G            0.16
44        A15C U25A            0.23
45         G7A U51C             0.2

Data credit: the RNAGym collection of RNA variant scans (doi:10.1093/nar/gkz1192)
